SYSTEM UNDER TEST: Lanosterol 14α-demethylase (LMD, CYP51A1) (Candida glabrata, UniProt P50859)
Construct: tested against Candida strains via the determination of ergosterol production; endogenous in cells; host or cells: C. glabrata (ATCC 90030)
Sequence (P50859 whole entry): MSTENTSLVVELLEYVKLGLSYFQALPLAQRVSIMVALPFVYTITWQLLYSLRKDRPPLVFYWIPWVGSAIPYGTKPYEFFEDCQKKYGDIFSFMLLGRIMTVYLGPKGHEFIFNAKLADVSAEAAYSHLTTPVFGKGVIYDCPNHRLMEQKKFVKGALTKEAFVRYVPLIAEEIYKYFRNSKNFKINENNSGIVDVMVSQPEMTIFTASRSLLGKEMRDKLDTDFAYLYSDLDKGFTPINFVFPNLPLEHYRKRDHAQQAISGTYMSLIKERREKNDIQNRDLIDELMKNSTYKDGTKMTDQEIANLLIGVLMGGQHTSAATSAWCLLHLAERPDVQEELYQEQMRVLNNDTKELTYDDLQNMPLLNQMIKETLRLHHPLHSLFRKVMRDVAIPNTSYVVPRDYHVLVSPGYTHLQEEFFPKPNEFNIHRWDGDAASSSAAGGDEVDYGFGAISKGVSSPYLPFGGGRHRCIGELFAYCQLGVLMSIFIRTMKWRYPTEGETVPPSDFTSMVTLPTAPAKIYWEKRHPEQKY
RUN DESCRIPTION: LDM (CYP51A1) inhibition by LC-MS-MS quantification of ergosterol level
Type: cell-based
APPLIED CONDITIONS: C. glabrata, 0.06 μg/mL; read-out: CYP51A1 Inhibition%
OUTCOME MEASURE: inhibition at 0.06 µg/mL (%)

1: COc1ccc2nc(Cl)c(C=NNc3nc(-c4ccc(C)cc4)cs3)cc2c1
2: COc1ccc2nc(Cl)c(/C=N/Nc3nc(-c4ccc(C#N)cc4)cs3)cc2c1
Input line: I need your help: which of the pair 1 , 2 has higher inhibition at 0.06 µg/mL? Identify your selection by its label.
Output line: 1

* * *

SYSTEM UNDER TEST: Lanosterol 14α-demethylase (LMD, CYP51A1) (Candida glabrata, UniProt P50859)
Construct: tested against Candida strains via the determination of ergosterol production; endogenous in cells; host or cells: C. glabrata (ATCC 90030)
RUN DESCRIPTION: LDM (CYP51A1) inhibition by LC-MS-MS quantification of ergosterol level
Assay type: cell-based
APPLIED CONDITIONS: C. glabrata, 0.98 μg/mL; read-out: CYP51A1 Inhibition%
OUTCOME MEASURE: inhibition at 0.98 µg/mL (%)

Check out these entries, answers already filled in.
Input line: So what's the measured inhibition at 0.98 µg/mL for this one? `COc1ccc2nc(Cl)c(C=NNc3nc(-c4ccc(C)cc4)cs3)cc2c1`
Output line: 65.1

Input line: So what's the measured inhibition at 0.98 µg/mL for this one? CC(=O)N1CCN(c2ccc(OCC3COC(Cn4ccnc4)(c4ccc(Cl)cc4Cl)O3)cc2)CC1 (stereo not shown) [ketoconazole, reference compound]
Output line: 72.8

1: COc1ccc2nc(Cl)c(C=NNc3nc(-c4ccc(Cl)cc4)cs3)cc2c1
2: COc1ccc2nc(Cl)c(/C=N/Nc3nc(-c4ccc(C#N)cc4)cs3)cc2c1
Input line: I need your help: which of the pair 1 , 2 has higher inhibition at 0.98 µg/mL? Identify your selection by its label.
Output line: 1

* * *

System: Candida parapsilosis ATCC 22019
RUN DESCRIPTION: Anticandidal broth microdilution (EUCAST EDef 7.1), MIC90
Type: cell-based
APPLIED CONDITIONS: Lodderomyces parapsilosis, ATCC22019, C. parapsilosis ATCC 22019; read-out: MIC90
OUTCOME MEASURE: MIC90 (µg/mL)

Check out these entries, answers already filled in.
Input line: Param readout = MIC90; param system = Candida parapsilosis ATCC 22019; param query = `COc1ccc2nc(Cl)c(/C=N/Nc3nc(-c4ccc(F)cc4)cs3)cc2c1` ; response: value
Output line: 15.6

Input line: Param readout = MIC90; param system = Candida parapsilosis ATCC 22019; param query = `COc1ccc2nc(Cl)c(C=NNc3nc(-c4ccncc4)cs3)cc2c1` ; response: value
Output line: 1.95

Input line: Param readout = MIC90; param system = Candida parapsilosis ATCC 22019; param query = `COc1cccc(-c2csc(N/N=C/c3cc4cc(OC)ccc4nc3Cl)n2)c1` ; response: value
Output line: 1.95

Input line: Param readout = MIC90; param system = Candida parapsilosis ATCC 22019; param query = `COc1ccc2nc(Cl)c(C=NNc3nc(-c4cccc(Cl)c4)cs3)cc2c1` ; response: value
Output line: 125

Input line: Param readout = MIC90; param system = Candida parapsilosis ATCC 22019; param query = `COc1ccc2nc(Cl)c(C=NNc3nc(-c4cccc5ccccc45)cs3)cc2c1` ; response: value
Output line: 0.24

P: COc1ccc2nc(Cl)c(/C=N/Nc3nc(-c4ccc5ccccc5c4)cs3)cc2c1
Q: COc1ccc2nc(Cl)c(/C=N/Nc3nc(-c4ccccc4)cs3)cc2c1
R: COc1ccc2nc(Cl)c(C=NNc3nc(-c4ccc(Cl)cc4)cs3)cc2c1
Input line: Ordering criterion: MIC90; begin with the maximum. Returns: the labels arranged in the requested order.
Output line: R, Q, P
(R: 31.2 µg/mL, Q: 15.6 µg/mL, P: 1.95 µg/mL)

Just for reference, paper PMC9835529 is where these values come from.
